# assay: HT1080 cell viability loss – fluorescence readout (AID 620);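 note: cells exposed to compound overnight then 4 h with Alamar Blue; 0% = vehicle DMSO and 100% = killing control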
# test-settings: at 10 µM, active compounds read high
The campaign covered roughly 87,000 compounds. About 360 (0.41%) were called active. Only a selection was taken, and actives are over-represented in it overall.
Listed below: cytotoxicity values for each entry.

{"columns": ["compound", "units", "cytotoxicity"],
 "data": [
  ["COCCNC(=O)COC(=O)/C=C/c1c(C)nn(Cc2ccc(Cl)cc2Cl)c1Cl", "%", 5.2],
  ["O=S(=O)(Nc1cccc2c1ccc1cccn12)c1cccs1", "%", -4.6],
  ["CCOC(=O)Nc1cccc(Nc2ccccc2)c1", "%", -3.2],
  ["Cc1c(C(=O)OCC(C)C)[nH]c2c1C(=O)CC(c1cccs1)C2 (configuration not stated)", "%", 66],
  ["C=CCSc1nccc(-c2nn(-c3ccc(C)cc3)ccc2=O)n1", "%", 44.5],
  ["CCOC(=O)c1cccc(NC(=O)c2cccnc2)c1", "%", 0.2],
  ["CCCCCCN(C(=O)CCCCCN1C(=O)NC(c2ccc([N+](=O)[O-])cc2)C(C(=O)OCc2ccccc2)=C1C)C(C(=O)NCCCC)c1ccc(OCC(=O)OC)c(C(=O)OC)c1 (configuration not stated)", "%", -7.3],
  ["O=C(CSc1nnc(-c2cccs2)o1)c1cccs1", "%", 25.4],
  ["CCSc1nccc(-c2nn(-c3ccc(C)cc3)ccc2=O)n1", "%", 29],
  ["CCOC(=O)/C(=C/Nc1ccccc1)[N+](=O)[O-]", "%", -10.2],
  ["Cc1ccc(S(=O)(=O)N2CCN(C(=O)CN3CCOCC3)C2c2ccccc2)cc1 (configuration not stated)", "%", 1.5],
  ["Cc1ccc(-c2nc(CS(=O)CC(=O)NC3CCC(C)CC3)c(C)o2)cc1 (configuration not stated)", "%", -9.8],
  ["CCOC(=O)c1sc(Nc2ccccc2)nc1C", "%", 15],
  ["COC(=O)C1=C(C)NC2=C(C(=O)CC(c3cccs3)C2)C1c1ccsc1 (configuration not stated)", "%", 16.3],
  ["CCOC(=O)c1cn(CC(=O)Nc2ccc(C)cc2)nn1", "%", -1.5],
  ["CCCOCCOC(=O)c1[nH]c2c(c1C)C(=O)CC(c1cc(OC)ccc1OC)C2 (configuration not stated)", "%", 1.3],
  ["CCOC(=O)/C(=C\\c1cccnc1)C(=O)c1cc(C(C)=O)c(Nc2ccccc2)s1", "%", 75.6],
  ["COC(=O)C(NC(=O)c1ccco1)(Nc1nc(C2CC2)cs1)C(F)(F)F (configuration not stated)", "%", 1.9],
  ["CCOc1ccccc1NS(=O)(=O)c1cccs1", "%", 56.5],
  ["COc1ccccc1-c1nnc2n1N=C(c1ccc(O)c(O)c1)CS2", "%", 48],
  ["CCOc1ccc(-c2nnc3n2N=C(c2ccc(OC)cc2)CS3)cc1", "%", 11.5],
  ["COc1cccc2c(=O)n(CC(=O)NC3CCCC3)ccc12", "%", 2.2]
]}
